Target: TRAP1 enzyme (Homo sapiens)
Sequence (Q12931 60-704): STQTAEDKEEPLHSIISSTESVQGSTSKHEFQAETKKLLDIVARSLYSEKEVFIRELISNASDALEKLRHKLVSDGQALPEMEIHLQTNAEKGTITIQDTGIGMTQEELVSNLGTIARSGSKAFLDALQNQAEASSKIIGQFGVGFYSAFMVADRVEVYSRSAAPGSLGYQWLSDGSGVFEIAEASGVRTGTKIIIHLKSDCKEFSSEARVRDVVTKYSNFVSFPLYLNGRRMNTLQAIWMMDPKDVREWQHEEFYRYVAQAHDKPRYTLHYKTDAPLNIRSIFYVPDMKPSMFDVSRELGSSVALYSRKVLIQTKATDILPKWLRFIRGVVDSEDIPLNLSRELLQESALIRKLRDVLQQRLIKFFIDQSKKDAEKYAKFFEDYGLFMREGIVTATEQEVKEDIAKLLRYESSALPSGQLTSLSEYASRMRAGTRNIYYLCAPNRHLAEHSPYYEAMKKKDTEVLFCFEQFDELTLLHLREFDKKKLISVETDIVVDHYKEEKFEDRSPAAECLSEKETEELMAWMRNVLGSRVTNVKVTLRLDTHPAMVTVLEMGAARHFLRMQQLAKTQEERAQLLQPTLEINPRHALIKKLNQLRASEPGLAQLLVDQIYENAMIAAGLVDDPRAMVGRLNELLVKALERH
Experiment: ADP Glo assay (ATPase activity of TRAP1)
Settings: 150 nM Trap1, 20 µM ATP, concentration for half maximal activation; read-out: ADP GLO DRC: GeoMean EC50
pEC50: −log10 of the molar value.
Answer each item with its documented pEC50.

Below, each entry is followed by its recorded pEC50 result.
COMPOUND_SMILES: O=C(Nc1ccc2c(c1)S(=O)(=O)N(c1ccc(C(F)(F)F)cc1)CCO2)c1cc(=O)cc[nH]1
pEC50: 4.00 to 4.52

COMPOUND_SMILES: COc1ccc(N2CCOc3ccc(NC(=O)c4ncoc4C)cc3S2(=O)=O)cc1
pEC50: 4.00 to 4.52

COMPOUND_SMILES: COc1cccnc1C(=O)Nc1ccc2c(c1)S(=O)(=O)N(c1ccc(C(F)(F)F)cc1)CCO2
pEC50: > 4.70

COMPOUND_SMILES: Cc1cc(C(=O)Nc2cnc3c(c2)S(=O)(=O)N(c2ccc(C(F)(F)F)cc2)CCO3)n(C)n1
pEC50: 4.52 to 4.70

Now let's try a different one.
Recorded result, `O=C(Nc1ccc2c(c1)S(=O)(=O)N(c1ccc(C(F)(F)F)cc1)CCO2)c1cnco1` , pEC50: 4.00 to 4.52

###

biological target: TRAP1 enzyme (Homo sapiens, UniProt Q12931); experiment: ADP Glo assay (ATPase activity of TRAP1); type: biochemical; conditions: 150 nM Trap1, 20 µM ATP, concentration for half maximal activation; read-out: ADP GLO DRC: GeoMean EC50
Provide the reported EC50 of each item.

Batch request: EC50 per item, same order as input.
1. Cn1cc(C(=O)Nc2ccc3c(c2)S(=O)(=O)N(c2ccc(C(F)(F)F)cc2)CCO3)cn1
2. O=C(Nc1ccc2c(c1)S(=O)(=O)N(c1ccc(C(F)(F)F)cc1)CCO2)c1cccnc1O
3. Cn1ccnc1C(=O)Nc1ccc2c(c1)S(=O)(=O)N(c1ccc(C(F)(F)F)cc1)CCO2

["20 to 30 µM", "30 to 100 µM", "< 20 µM"]

Go through the items and report each one's EC50.
1. Cc1cnccc1C(=O)Nc1ccc2c(c1)S(=O)(=O)N(c1ccc(C(F)(F)F)cc1)CCO2
2. Cc1nscc1C(=O)Nc1ccc2c(c1)S(=O)(=O)N(c1ccc(C(F)(F)F)cc1)CCO2

1: 20 to 30 µM; 2: < 20 µM

Would you be so kind as to report EC50 for each listed record?
1. Cc1oncc1C(=O)Nc1ccc2c(c1)S(=O)(=O)N(c1ccc(C(F)(F)F)cc1)CCO2
2. Cc1ncoc1C(=O)Nc1ccc2c(c1)S(=O)(=O)N(c1ccc(C(F)F)cc1)CCO2

1. 30 to 100 µM
2. 30 to 100 µM

###

Target: TRAP1 enzyme (Homo sapiens)
Sequence (Q12931 60-704): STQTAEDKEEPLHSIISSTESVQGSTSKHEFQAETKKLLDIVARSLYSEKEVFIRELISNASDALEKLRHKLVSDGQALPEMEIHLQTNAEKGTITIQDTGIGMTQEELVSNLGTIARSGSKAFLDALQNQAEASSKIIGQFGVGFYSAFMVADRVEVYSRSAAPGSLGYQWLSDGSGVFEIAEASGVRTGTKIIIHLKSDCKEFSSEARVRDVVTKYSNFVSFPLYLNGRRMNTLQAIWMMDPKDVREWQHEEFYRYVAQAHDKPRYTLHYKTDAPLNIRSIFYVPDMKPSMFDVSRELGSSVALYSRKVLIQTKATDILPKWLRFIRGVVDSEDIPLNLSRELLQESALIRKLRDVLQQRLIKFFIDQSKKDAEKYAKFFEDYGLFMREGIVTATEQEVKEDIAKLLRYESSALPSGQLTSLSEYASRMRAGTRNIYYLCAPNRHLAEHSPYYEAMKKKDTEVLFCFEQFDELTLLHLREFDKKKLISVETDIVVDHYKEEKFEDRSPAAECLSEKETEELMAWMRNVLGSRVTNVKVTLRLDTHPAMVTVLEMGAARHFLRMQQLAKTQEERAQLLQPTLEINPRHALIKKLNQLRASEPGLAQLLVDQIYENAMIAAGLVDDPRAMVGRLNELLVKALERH
Experiment: ADP Glo assay (ATPase activity of TRAP1)
Assay type: biochemical
Conditions: maximal percent activation; read-out: ADP GLO DRC: Mean Emax
READOUT_KIND: Emax

# example entries with known answers
COMPOUND: O=C(Nc1ccc2c(c1)S(=O)(=O)N(c1ccc(C(F)(F)F)cc1)CCO2)c1cocn1
ASSAYED_SYSTEM: TRAP1 enzyme (Homo sapiens)
Emax: 150 to 200%
//
COMPOUND: CN1CCCC1C(=O)Nc1ccc2c(c1)S(=O)(=O)N(c1ccc(C(F)(F)F)cc1)CCO2 (stereo not drawn)
ASSAYED_SYSTEM: TRAP1 enzyme (Homo sapiens)
Emax: 150 to 200%
//
COMPOUND: CCn1nccc1C(=O)Nc1ccc2c(c1)S(=O)(=O)N(c1ccc(C(F)(F)F)cc1)CCO2
ASSAYED_SYSTEM: TRAP1 enzyme (Homo sapiens)
Emax: 129 to 149%
//
COMPOUND: O=C(Nc1ccc2c(c1)S(=O)(=O)N(c1ccc(C(F)(F)F)cc1)CCO2)c1cnc(-c2ccccc2)[nH]1
ASSAYED_SYSTEM: TRAP1 enzyme (Homo sapiens)
Emax: 129 to 149%
//
COMPOUND: Cc1noc(C)c1C(=O)Nc1ccc2c(c1)S(=O)(=O)N(c1ccc(C(F)(F)F)cc1)CCO2
ASSAYED_SYSTEM: TRAP1 enzyme (Homo sapiens)
Emax: 129 to 149%

Hi there! I need Emax for each item below, if you can.
1. COc1ncncc1C(=O)Nc1ccc2c(c1)S(=O)(=O)N(c1ccc(C(F)(F)F)cc1)CCO2
2. Cc1ncc(C(=O)Nc2ccc3c(c2)S(=O)(=O)N(c2ccc(C(F)(F)F)cc2)CCO3)n1C
3. Cc1ncoc1C(=O)Nc1ccc2c(c1)S(=O)(=O)N(c1ccc(C(F)(F)F)cc1)CCCO2
4. COc1cc(N2CCOc3ccc(NC(=O)c4ncoc4C)cc3S2(=O)=O)ccc1C(F)(F)F
5. O=C(Nc1ccc2c(c1)S(=O)(=O)N(c1ccc(C(F)(F)F)cc1)CCO2)c1cncn1CCO
6. Cc1ncoc1C(=O)Nc1ccc2c(c1)S(=O)(=O)N(c1ccc(C(F)(F)F)nc1)CCO2
7. O=C(Nc1ccc2c(c1)S(=O)(=O)N(c1ccc(C(F)(F)F)cc1)CCO2)c1ccc(CO)cn1
8. O=C(Nc1ccc2c(c1)S(=O)(=O)N(c1ccc(C(F)(F)F)cc1)CCO2)c1cccnc1

["129 to 149%", "> 200%", "> 200%", "129 to 149%", "129 to 149%", "150 to 200%", "150 to 200%", "150 to 200%"]

###

target: UniProtKB Q12931; experiment: ADP Glo assay (ATPase activity of TRAP1); conditions: 150 nM Trap1, 20 µM ATP, concentration for half maximal activation; read-out: ADP GLO DRC: GeoMean EC50
READOUT_KIND: EC50

The examples below pair each entry with its known result.
MOLECULE: Cc1ocnc1C(=O)Nc1ccc2c(c1)S(=O)(=O)N(c1ccc(F)cc1)CCO2 [Compound 2375]
EC50: 30 to 100 µM

MOLECULE: O=C(Nc1ccc2c(c1)S(=O)(=O)N(c1ccc(C(F)(F)F)cc1)CCO2)c1cc[nH]c(=O)c1 [Compound 2187]
EC50: 30 to 100 µM

MOLECULE: Cc1nc(C(=O)Nc2ccc3c(c2)S(=O)(=O)N(c2ccc(C(F)(F)F)cc2)CCO3)co1 [Compound 1992]
EC50: 20 to 30 µM

MOLECULE: COc1ccncc1C(=O)Nc1ccc2c(c1)S(=O)(=O)N(c1ccc(C(F)(F)F)cc1)CCO2 [Compound 2323]
EC50: 20 to 30 µM

MOLECULE: Cc1cc(C(=O)Nc2ccc3c(c2)S(=O)(=O)N(c2ccc(C(F)(F)F)cc2)CCO3)cc(C)n1 [Compound 2173]
EC50: < 20 µM

MOLECULE: CC(C)c1scnc1C(=O)Nc1ccc2c(c1)S(=O)(=O)N(c1ccc(C(F)(F)F)cc1)CCO2 [Compound 2085]
EC50: 30 to 100 µM

Alright, here's another molecule for you.
The recorded EC50 for CC(C)n1cnc(C(=O)Nc2ccc3c(c2)S(=O)(=O)N(c2ccc(C(F)(F)F)cc2)CCO3)n1 [Compound 2258] is 20 to 30 µM
